# System: SOS1/KRAS-G12D (Homo sapiens (Human), UniProt Q07889)
# Sequence (Q07889 564-1049 limits assumed): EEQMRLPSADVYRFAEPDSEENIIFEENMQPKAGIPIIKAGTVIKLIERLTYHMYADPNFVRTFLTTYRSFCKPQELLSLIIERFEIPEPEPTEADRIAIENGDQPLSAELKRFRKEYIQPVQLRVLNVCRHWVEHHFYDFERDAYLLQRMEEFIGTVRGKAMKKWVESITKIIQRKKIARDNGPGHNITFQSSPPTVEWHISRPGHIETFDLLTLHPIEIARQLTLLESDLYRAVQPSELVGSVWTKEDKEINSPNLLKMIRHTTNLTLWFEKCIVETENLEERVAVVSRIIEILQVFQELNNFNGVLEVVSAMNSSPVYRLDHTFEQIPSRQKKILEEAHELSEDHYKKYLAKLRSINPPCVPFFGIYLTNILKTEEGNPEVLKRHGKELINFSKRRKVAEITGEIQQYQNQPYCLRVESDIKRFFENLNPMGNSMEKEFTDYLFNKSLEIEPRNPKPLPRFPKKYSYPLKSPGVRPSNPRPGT
# Test protocol: SOS1/KRAS-G12D binding inhibition assay (AlphaScreen)
# Condition notes: GST-SOS1 and 6*His KRAS-G12D, read-out: KrasG12D/SOS1 binding IC50
pIC50: −log10 of the molar value.
Kindly supply the reported pIC50 values for the records listed here.

As a guide, the following entries are already answered.
{"columns": ["Compound", "System", "Result"],
 "data": [
  ["CC(=O)N1C[C@@H](C)N(c2ccc3nccc(N[C@H](C)c4cccc(C(F)(F)F)c4C)c3c2)C[C@@H]1C", "SOS1/KRAS-G12D (Homo sapiens (Human), UniProt Q07889)", "< 7.00"],
  ["Cc1c([C@@H](C)Nc2ccnc3ccc(N4CCN(c5cnn(C)c5)CC4)cc23)cccc1C(F)(F)F", "SOS1/KRAS-G12D (Homo sapiens (Human), UniProt Q07889)", "< 7.00"],
  ["Cc1cc(N[C@H](C)c2cccc(C(F)(F)F)c2C)c2cc(N3CCN(C(=O)C4CCOC4)CC3)ccc2n1 (stereo partly shown)", "SOS1/KRAS-G12D (Homo sapiens (Human), UniProt Q07889)", "7.00 to 8.00"],
  ["COC(=O)N1CC[C@](OC)(c2ccc3nccc(N[C@H](C)c4cccc(C(F)F)c4F)c3c2)C1", "SOS1/KRAS-G12D (Homo sapiens (Human), UniProt Q07889)", "≥ 8.00"],
  ["COC1(c2ccc3nccc(N[C@H](C)c4cccc(C(F)(F)F)c4C)c3c2)CCN(C(=O)CF)CC1", "SOS1/KRAS-G12D (Homo sapiens (Human), UniProt Q07889)", "≥ 8.00"]
]}

Below are 2 compounds. Give each one its pIC50.
1. Cc1c([C@@H](C)Nc2ccnc3ccc(N4CCNC[C@@H]4C)cc23)cccc1C(F)(F)F
2. CC(=O)N[C@H]1CCN(c2ccc3nccc(N[C@H](C)c4cccc(C(F)(F)F)c4C)c3c2)C1

["7.00 to 8.00", "< 7.00"]
